Biological target: adenosine deaminase (Bos taurus)
Construct: purchased Sigma Chemical Type VI
Sequence (P56658 1-363): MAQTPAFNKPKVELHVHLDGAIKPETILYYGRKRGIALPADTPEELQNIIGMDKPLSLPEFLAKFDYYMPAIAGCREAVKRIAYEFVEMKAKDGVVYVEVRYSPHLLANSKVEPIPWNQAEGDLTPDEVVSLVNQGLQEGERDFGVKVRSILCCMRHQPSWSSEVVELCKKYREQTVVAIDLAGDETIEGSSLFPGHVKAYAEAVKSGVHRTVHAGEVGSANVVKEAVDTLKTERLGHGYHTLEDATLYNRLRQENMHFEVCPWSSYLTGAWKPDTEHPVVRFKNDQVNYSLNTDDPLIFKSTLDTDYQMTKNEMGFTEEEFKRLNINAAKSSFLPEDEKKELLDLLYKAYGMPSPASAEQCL
Assay: Enzyme-inhibitory activity against adenosine deaminase (optical density at 265 nm)
Type: biochemical
Details: phosphate buffer 0.05 M, pH 7.4; 25°C, 5 minutes pre-incubation; substrate adenosine; read-out: Enzyme-inhibitory activity, IC50
pIC50: −log10 of the molar value.
property.name: pIC50

{"molecule": "OC[C@H]1O[C@@H](n2cnc3c2N=CNC[C@H]3O)[C@H](F)[C@@H]1O [FCF]", "measured.on": "adenosine deaminase (Bos taurus)", "property.name": "pIC50", "result.number": 7.77}
{"molecule": "OC[C@H]1O[C@@H](n2cnc3c2N=CNC[C@H]3O)[C@@H](F)[C@@H]1O [Ara-FCF]", "measured.on": "adenosine deaminase (Bos taurus)", "property.name": "pIC50", "result.number": 9.11}
{"molecule": "OC[C@H]1O[C@@H](n2cnc3c2N=CNC[C@@H]3O)[C@@H](F)[C@@H]1O [Ara-e-FCF]", "measured.on": "adenosine deaminase (Bos taurus)", "property.name": "pIC50", "result.number": 5.66}
{"molecule": "OC[C@H]1O[C@@H](n2cnc3c2N=CNC[C@@H]3O)[C@H](F)[C@@H]1O [e-FCF]", "measured.on": "adenosine deaminase (Bos taurus)", "property.name": "pIC50", "result.number": 7.00}

Values compiled from patent EP0643069B1.
